Listed next: entries and their corresponding IC50.
target: NLRP3 (Homo sapiens); test: THP-1 cells pyroptosis assay; format: cell-based; parameters: Seed THP-1 cells (25,000 cells/well) containing 1.0 μg/ml LPS; host or cells: THP-1; settings: LPS 1.0 μg/ml, nigericin 5 μM, resazurin readout, 10 μM top dose (Example 2: top dose of 30 μM)
Sequence (Q96P20 whole entry): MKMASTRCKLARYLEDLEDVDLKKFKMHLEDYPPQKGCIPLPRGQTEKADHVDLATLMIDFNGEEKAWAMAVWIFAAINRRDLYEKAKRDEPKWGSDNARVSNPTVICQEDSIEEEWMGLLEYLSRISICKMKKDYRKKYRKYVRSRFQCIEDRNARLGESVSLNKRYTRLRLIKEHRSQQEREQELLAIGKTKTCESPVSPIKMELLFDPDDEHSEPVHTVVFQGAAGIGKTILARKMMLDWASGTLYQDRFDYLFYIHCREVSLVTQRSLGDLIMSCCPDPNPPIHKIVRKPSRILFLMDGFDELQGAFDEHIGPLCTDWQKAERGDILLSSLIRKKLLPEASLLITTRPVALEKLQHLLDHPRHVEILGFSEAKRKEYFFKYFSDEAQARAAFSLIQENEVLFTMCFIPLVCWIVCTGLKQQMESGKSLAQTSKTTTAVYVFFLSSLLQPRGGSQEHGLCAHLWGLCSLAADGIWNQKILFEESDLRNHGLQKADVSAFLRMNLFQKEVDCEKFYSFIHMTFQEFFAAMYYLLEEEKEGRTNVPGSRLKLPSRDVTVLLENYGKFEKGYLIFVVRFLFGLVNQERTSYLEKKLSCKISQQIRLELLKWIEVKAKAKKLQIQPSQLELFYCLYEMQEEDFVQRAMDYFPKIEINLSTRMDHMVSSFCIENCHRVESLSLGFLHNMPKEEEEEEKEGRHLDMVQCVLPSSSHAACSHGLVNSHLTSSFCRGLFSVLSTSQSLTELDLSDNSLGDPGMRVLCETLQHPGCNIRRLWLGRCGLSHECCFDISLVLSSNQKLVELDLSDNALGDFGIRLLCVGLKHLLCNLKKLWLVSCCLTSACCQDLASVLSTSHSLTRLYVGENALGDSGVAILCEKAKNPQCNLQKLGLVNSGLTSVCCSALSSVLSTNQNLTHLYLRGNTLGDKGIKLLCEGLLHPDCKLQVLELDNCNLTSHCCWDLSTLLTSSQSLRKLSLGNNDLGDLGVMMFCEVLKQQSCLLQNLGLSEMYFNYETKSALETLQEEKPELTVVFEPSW

Answered examples (5):
Compound: CC(C)n1ccc(S(=O)(=O)c2nnc(Nc3c4c(cc5c3CCC5)CCC4)[nH]2)n1
IC50: ≤ 0.5 µM

Compound: CC(C)N1CCN(S(=O)(=O)c2nnc(Nc3c4c(cc5c3CCC5)CCC4)[nH]2)CC1
IC50: ≤ 1 µM

Compound: O=S(=O)(c1nnc(Nc2c3c(cc4c2CCC4)CCC3)[nH]1)N1CC(c2ccccn2)C1
IC50: ≤ 5 µM

Compound: COC(C)(C)[C@H]1CCN(S(=O)(=O)c2nnc(Nc3c4c(cc5c3CCC5)CCC4)[nH]2)C1
IC50: ≤ 1 µM

Compound: CN(C)C1CCN(S(=O)(=O)c2nnc(Nc3c(-c4ccnc(OC(F)F)c4)ccc4c3CCC4)[nH]2)CC1
IC50: ≤ 0.5 µM

Enter IC50 (test system NLRP3 (Homo sapiens)) for CN1CCC[C@H](NS(=O)(=O)c2nnc(Nc3c4c(cc5c3CCC5)CCC4)[nH]2)C1 ≤ 5 µM

Enter IC50 (test system NLRP3 (Homo sapiens)) for O=S(=O)(c1nnc(Nc2c3c(cc4c2CCC4)CCC3)[nH]1)N1CC2(CCNC2)C1 ≤ 5 µM

###

Listed next: entries and their corresponding IC50.
molecular target: NLRP3 (Homo sapiens); assay: THP-1 cells pyroptosis assay; type: cell-based; design: Seed THP-1 cells (25,000 cells/well) containing 1.0 μg/ml LPS; host or cells: THP-1; settings: LPS 1.0 μg/ml, nigericin 5 μM, resazurin readout, 10 μM top dose (Example 2: top dose of 30 μM)

Answered examples (5):
Given smiles: CNS(=O)(=O)c1nnc(Nc2c3c(cc4c2CCC4)CCC3)[nH]1
IC50: ≤ 5 µM

Given smiles: COc1cc(-c2c(C)cc3c(c2Nc2nnc(S(C)(=O)=O)[nH]2)CCC3)ccn1
IC50: ≤ 5 µM

Given smiles: CS(=O)(=O)c1nnc(Nc2c(-c3ccnc(OC4CCNCC4)c3)ccc3c2CCC3)[nH]1
IC50: ≤ 10 µM

Given smiles: CCN(CC)C[C@H]1CCN(S(=O)(=O)c2nnc(Nc3c4c(cc5c3CCC5)CCC4)[nH]2)C1
IC50: ≤ 0.5 µM

Given smiles: O=S(=O)(c1nnc(Nc2c3c(cc4c2CCC4)CCC3)[nH]1)N1CC[C@H](C2(O)CC2)C1
IC50: ≤ 1 µM

Consider the compound CN(C)C1CCN(S(=O)(=O)c2nnc(Nc3c(-c4cnn(C)c4)ccc4c3CCC4)[nH]2)CC1 . State its measured IC50. ≤ 5 µM

Consider the compound CC(C)c1cc(F)cc(-c2ccncc2)c1Nc1nnc(S(=O)(=O)c2ccccc2)[nH]1 . State its measured IC50. ≤ 10 µM

Consider the compound CC(C)(O)c1ccc(S(=O)(=O)c2nnc(Nc3c4c(cc5c3CCC5)CCC4)[nH]2)cc1 . State its measured IC50. ≤ 0.5 µM

###

Listed next: entries and their corresponding half-life.
Test: PK, intravenous administration
Assay type: in vivo
Details: rat, plasma, male Sprague Dawley rats, dose about 1 mg/kg
Method: Pharmacokinetic parameters were determined in male Sprague Dawley rats (Vital River Laboratory Animal Technology Co Ltd, Beijing, China, 6-9 weeks old). Animals were maintained under a 12 h light/dark cycle. Animals had free access to food and water, except that orally dosed animals were food deprived overnight prior to the study. […]
I'd appreciate it if you wrote the number followed by its unit.

Answered examples (4):
Molecule: CCN(CC)CCCS(=O)(=O)c1nnc(Nc2c3c(cc4c2CCC4)CCC3)[nH]1
Result: 0.8 h
//
Molecule: CCN(CC)CCCS(=O)(=O)c1nnc(Nc2c(-c3ccnc(OC)c3)cc(F)cc2C(C)C)[nH]1
Result: 2.57 h
//
Molecule: Cn1cc(S(=O)(=O)c2nnc(Nc3c4c(cc5c3CCC5)CCC4)[nH]2)cn1
Result: 0.93 h
//
Molecule: CC(C)c1cc(F)cc(-c2ccncc2)c1Cc1nnc(S(=O)(=O)N2CCC(CN(C)C)C2)[nH]1 (centres unmarked)
Result: 0.36 h

Consider the molecule COc1cc(-c2c(C)cc3c(c2Nc2nnc(S(=O)(=O)N4CCC(N(C)C)CC4)[nH]2)CCC3)ccn1 . State its measured half-life. 2.18 h

Consider the molecule O=S(=O)(CCCN1CCCC1)c1nnc(Nc2c3c(cc4c2CCC4)CCC3)[nH]1 . State its measured half-life. 2.1 h

Consider the molecule COc1cc(-c2cc(F)cc(C(C)C)c2Oc2nnc(S(=O)(=O)N3CCC(CN(C)C)C3)[nH]2)ccn1 (centres unmarked) . State its measured half-life. 0.71 h

Consider the molecule CC(C)c1cc(F)cc(C(C)C)c1Nc1nnc(S(=O)(=O)N2CCC3(CCCN3C)CC2)[nH]1 . State its measured half-life. 2.72 h
